target: T1, His-tagged ILT4 protein extracellular domain: ILT4-His (human, UniProt Q8N423 22-460); assay: SPR (Biacore), antibody captured on Protein A chip, ILT4-His as analyte, 1:1 model
T1 construct: Expressed in 293 cells; also called human ILT4-His protein
T1 sequence (Q8N423 other isoform, or with tags, fused parts or gaps limits assumed): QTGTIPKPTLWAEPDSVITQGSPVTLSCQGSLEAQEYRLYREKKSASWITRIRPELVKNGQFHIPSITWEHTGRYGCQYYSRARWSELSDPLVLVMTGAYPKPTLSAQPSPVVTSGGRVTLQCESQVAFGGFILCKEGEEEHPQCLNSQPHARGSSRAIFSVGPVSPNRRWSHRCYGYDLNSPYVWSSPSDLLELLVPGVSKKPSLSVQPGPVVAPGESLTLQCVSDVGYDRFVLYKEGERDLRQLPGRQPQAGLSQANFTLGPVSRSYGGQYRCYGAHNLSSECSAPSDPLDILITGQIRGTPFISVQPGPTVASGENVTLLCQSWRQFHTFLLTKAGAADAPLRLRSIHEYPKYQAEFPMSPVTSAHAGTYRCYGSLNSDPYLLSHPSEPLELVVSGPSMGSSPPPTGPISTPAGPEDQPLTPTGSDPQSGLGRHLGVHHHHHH
Would you please tag the item T when its koff is 0.0002 s⁻¹ or above, and F when it is below?

binder	cat
positive control antibody MK (sequences from WO2018187518A1) (antibody, human IgG4 S228P, lambda, V domains shown) VH: EVQLQQWGAGLLKPSETLSLTCAVYGGSFSGYYWSWIRQPPGKGLEWIGEINHAGSTNYNPSLKSRVTISVDTSKNQFSLKLSSVTAADTAVYYCARLPTRWVTTRYFDLWGRGTLVTVSS VL: ESVLTQPPSVSGAPGQRVTISCTGSSSNIGAGYDVHWYQQLPGTAPKLLIYGDSNRPSGVPDRFSVSKSGASASLAITGLQAEDEADYYCQSFDNSLSAYVFGGGTQLTVLG	T
humanized antibody huP2-G9 (antibody, human IgG1, kappa, L234A L235A, V domains shown, Full chains; also called P2-G9H1L2) VH: EVQLQESGPGLVKPSQTLSLTCTVSGSSITSGYYWNWIRQHPGKGLEWIGYLSYDGSNNYNPSLKNLVTISRDTSKNQFSLKLSSVTAADTAVYYCAREGAHYSGTLSWFAYWGQGTLVTVSS VL: DIQMTQSPSSLSASVGDRVTITCRASENIYSNLAWYQQKPGKSPKLLVYAATNLADGVPSRFSGSGSGTDYTLTISSLQPEDFATYYCQHFWDTPYTFGGGTKVEIKR	F
humanized antibody huP2-E3 (antibody, human IgG4 S228P, kappa, F234A L235A, V domains shown, Full chains; The constant region is hIgG1(LALA) or hIgG4(LALA) with a kappa CL; also called P2-E3H6L2) VH: EVQLVQSGAEVKKPGASVKVSCKASGYTFTDYYMNWVKQAPGQRLEWMGDINPNSGGTSYNQKFKGRVTITVDKSGSTAYMELSSLRSEDTAVYYCARGGVTTVVATYWYFDVWGQGTTVTVSS VL: DIQMTQSPSSLSASVGDRVTITCRASENIYSNLAWYQQKPGKSPKLLVYAATNVADGVPSRFSGSGSGTDYTLTISSLQPEDFATYYCQQFWDTPFTFGQGTKLEIKR	T
humanized antibody huP2-E8 (antibody, human IgG4 S228P, kappa, F234A L235A, V domains shown, Full chains; also called P2-E8H4L1) VH: EVQLVESGGGLVKPGGSLRLSCAASGFTFSDYGIHWVRQAPGKGLEWVAYISSGSSIHNYADTVKGRFTISRDNAKNSLYLQMNSLRAEDTAVYYCARGPNYYGSSYLLVYWGQGTLVTVSS VL: DIQMTQSPSSLSASVGDRVTITCKASQDVNIAVAWYQQKPGKAPKLLIYSASYRYTGVPSRFSGSGSGTDFTFTISSLQPEDIATYYCQQHYNIPWTFGGGTKVEIKR	F
humanized antibody huP1-G7 (antibody, human IgG4 S228P, kappa, F234A L235A, V domains shown, Full chains; also called P1-G7H1L1) VH: EVQLQESGPGLVKPSQTLSLTCTVSGYSITSGYYWNWIRQHPGKGLEWIGYISYDGGNNYNPFLKNRVTISRDTSKNQFSLKLSSVTAADTAVYYCAREGGSSWEYYGMDYWGQGTTVTVSS VL: DIQMTQSPSSLSASVGDRVTITCRASENIYRNLAWYQQKPGKAPKLLLYAATNLADGVPSRFSGSGSGTDFTLTISSLQPEDFATYYCQQFWGSPYTFGGGTKVEIKR	F

Values were extracted from patent EP4585618A1.
